SETTINGS: in n-butanol, 298.15 K
PROPERTY: solubility (mole fraction)

1: C[C@@H]1O[C@@H](O[C@H]2[C@H](Oc3cc(O)c4c(c3)O[C@H](c3ccc(O)cc3)CC4=O)O[C@H](CO)[C@@H](O)[C@@H]2O)[C@H](O)[C@H](O)[C@H]1O
2: O=C1C[C@@H](c2ccc(O)cc2)Oc2cc(O)cc(O)c21
Problem: Parameter check: reported solubility (mole fraction) is higher for which label, 1 or 2 ? API: response body contains the label of the selected item.
Result: 2
(2: 0.00175, 1: 7.46e-05)

###

SETTINGS: in isopropanol, 323.15 K
PROPERTY: solubility (mole fraction)

1: O=C1C[C@@H](c2ccc(O)cc2)Oc2cc(O)cc(O)c21
2: C[C@@H]1O[C@@H](O[C@H]2[C@H](Oc3cc(O)c4c(c3)O[C@H](c3ccc(O)cc3)CC4=O)O[C@H](CO)[C@@H](O)[C@@H]2O)[C@H](O)[C@H](O)[C@H]1O
Problem: Just curious, which one has the larger solubility (mole fraction) reading, 1 or 2 ? The response must carry the label of the picked entry.
Result: 1
(1: 0.0252, 2: 4.29e-05)

###

SETTINGS: in methanol, 303.15 K
PROPERTY: solubility (mole fraction)

1: C[C@@H]1O[C@@H](O[C@H]2[C@H](Oc3cc(O)c4c(c3)O[C@H](c3ccc(O)cc3)CC4=O)O[C@H](CO)[C@@H](O)[C@@H]2O)[C@H](O)[C@H](O)[C@H]1O
2: O=C1C[C@@H](c2ccc(O)cc2)Oc2cc(O)cc(O)c21
Problem: Hello, I am sorting some records. Could you say if 1 or 2 has the smaller solubility (mole fraction) value? Answer format: the label of the selected item.
Result: 1

###

SETTINGS: in n-butanol, 308.15 K
PROPERTY: solubility (mole fraction)

A: C[C@@H]1O[C@@H](O[C@H]2[C@H](Oc3cc(O)c4c(c3)O[C@H](c3ccc(O)cc3)CC4=O)O[C@H](CO)[C@@H](O)[C@@H]2O)[C@H](O)[C@H](O)[C@H]1O
B: O=C1C[C@@H](c2ccc(O)cc2)Oc2cc(O)cc(O)c21
Problem: Given the two records A and B , choose the one whose solubility (mole fraction) value is lower. // output: label of the selected item
Result: A

###

SETTINGS: in n-hexane, 308.15 K
PROPERTY: solubility (mole fraction)

I: C[C@@H]1O[C@@H](O[C@H]2[C@H](Oc3cc(O)c4c(c3)O[C@H](c3ccc(O)cc3)CC4=O)O[C@H](CO)[C@@H](O)[C@@H]2O)[C@H](O)[C@H](O)[C@H]1O
II: O=C1C[C@@H](c2ccc(O)cc2)Oc2cc(O)cc(O)c21
Problem: Could you point out whether the larger solubility (mole fraction) belongs to I or to II ? Indicate which entry you chose by stating its label.
Result: II

###

SETTINGS: in methanol, 293.15 K
PROPERTY: solubility (mole fraction)

P: C[C@@H]1O[C@@H](O[C@H]2[C@H](Oc3cc(O)c4c(c3)O[C@H](c3ccc(O)cc3)CC4=O)O[C@H](CO)[C@@H](O)[C@@H]2O)[C@H](O)[C@H](O)[C@H]1O
Q: O=C1C[C@@H](c2ccc(O)cc2)Oc2cc(O)cc(O)c21
Problem: Just curious, which one has the larger solubility (mole fraction) reading, P or Q ? Select an item and report its label.
Result: Q
